Provide the reported activation at 1.53 µM of each item.
system: α7 integrin (LacZ reporter in α7LacZ+/− myoblasts); assay: qHTS of the LOPAC library and MLSMR (online screen, α7LacZ+/− myoblasts); conditions: Mus musculus, Myoblast, 48 h, read-out: Activity at 1.530 uM [%] **
Give bare numbers, in %.

# count of solved cases: 6
compound: Cc1ccc(CNc2ncnc(N)c2[N+](=O)[O-])cc1 [Compound 120]
assaySystem: α7 integrin (LacZ reporter in α7LacZ+/− myoblasts)
activation at 1.53 µM (%): 33.8

compound: C/C(CC(=O)Nc1ccc(Cl)c(C(F)(F)F)c1)=N\NC(=O)c1cnccn1 [Compound 38]
assaySystem: α7 integrin (LacZ reporter in α7LacZ+/− myoblasts)
activation at 1.53 µM (%): -2.88

compound: Fc1ccc(-c2ccnn2-c2ccccc2)cc1 [Compound 107]
assaySystem: α7 integrin (LacZ reporter in α7LacZ+/− myoblasts)
activation at 1.53 µM (%): -3.24

compound: Cc1ccc(-c2nc(C)sc2CC(=O)OCC(=O)Nc2c(F)cccc2F)cc1 [Compound 210]
assaySystem: α7 integrin (LacZ reporter in α7LacZ+/− myoblasts)
activation at 1.53 µM (%): 9.43

compound: Cn1ccc(C(=O)Nc2cccnc2Cl)n1 [Compound 140]
assaySystem: α7 integrin (LacZ reporter in α7LacZ+/− myoblasts)
activation at 1.53 µM (%): -4.96

compound: COc1cc2c(cc1OC)C(NC(=O)C(F)(F)F)C/C2=N\O (centres unmarked) [Compound 193]
assaySystem: α7 integrin (LacZ reporter in α7LacZ+/− myoblasts)
activation at 1.53 µM (%): 2

Go through the items and report each one's activation at 1.53 µM.
1. COc1ccccc1OCC(=O)N/N=C1/C=C(C)CC1 [Compound 185]
2. CCOc1ccc2ccccc2c1C1NC(=O)N(C)C(C)=C1C(=O)OCCOC (centres unmarked) [Compound 76]
3. Sc1nnc(Cn2cnc3ccccc32)n1-c1ccccc1 [Compound 189]

-24
5.65
23.7

Provide the reported activation at 1.53 µM of each entry below, same order.
1. Cc1ccc(-c2onc3ccc(C(=O)/C=C/N(C)C)cc23)cc1 [Compound 39]
2. CN(C)S(=O)(=O)c1cccc(C(=O)Nc2ccc3c(c2)CCC3)c1 [Compound 8]
3. Cc1cc(OCC(=O)NC(C)C)ccc1Cl [Compound 11]

1: 5.51; 2: -10.6; 3: 7.6

FYI, the data here is from patent US9980943B2.
